Provenance of the data: the supplement of paper PMC10567573

assay: protein stability index of a GFP-peptide fusion (GPS, HEK-293T) (PSI 1-6); higher = more stable; settings: treatment: MLN4924 1 uM, 8 h; c terminus: a fixed tail appended;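 further: 24-mer peptide tiles fused after GFP, lentivirally expressed, FACS-sorted into six equal bins by GFP/DsRed ratio, decoded by Illumina sequencing, PSI is the read-weighted mean bin number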
Measured protein stability index, listed per entry.
Answer with the value's number alone.

# input # protein stability index lookup, item GGGREPQGLAEKSPLQTIGEEQTQ [WDR41]
# output 5.58

# input Request: LEQMIKENQEKTEDQYEENSHLTS [ETS2]
# output 5.51

# input Request: HNQVEAAWLEGRIRQEFDKLREFL [TRIM35]
# output 3.75

# input Request: WYVCRTQGVEGDHCVTSDPATSPL [TRIM35]
# output 2.98

# input Request: MAGRLMIRKLVAEKLNIPWNHIRL [AASDHPPT]
# output 2.12

# input Request: NSNTPVDDFHTNDVCSFPNALVTK [FEM1B]
# output 4.5

# input Request: LVLEQFLTILPTEIETWVREHCPE [ZNF449]
# output 2.35

# input Request: SLIGKGSFGQVVKAYDHQTQELVA [DYRK1B]
# output 3.59

# input Request: RNWALKESFIKAIGVGLGFELQRL [AASDHPPT]
# output 2.63

###

Measured protein stability index, listed per entry.
experiment: protein stability index of a GFP-peptide fusion (GPS, HEK-293T) (PSI 1-6); higher = more stable; conditions: treatment: DMSO; c terminus: a fixed tail appended
Answer with the value's number alone.

Below, 5 sequences whose answers are already recorded.
RECORD_SEQUENCE: ICGIICIGPNVLMVHKRSHTGERP [IKZF1]
MEASUREMENT_TYPE: protein stability index
READOUT_NUMBER: 2.46
//
RECORD_SEQUENCE: ASLLQPVTPLGTSRWRKISAALPY [NCF4]
MEASUREMENT_TYPE: protein stability index
READOUT_NUMBER: 2.46
//
RECORD_SEQUENCE: PPTRGPPPSYGGSSRYDDYSSSRD [RBMX]
MEASUREMENT_TYPE: protein stability index
READOUT_NUMBER: 5.05
//
RECORD_SEQUENCE: PLRAVHINLEEKEKQIRSFLIEGP [PLEKHN1]
MEASUREMENT_TYPE: protein stability index
READOUT_NUMBER: 3.7
//
RECORD_SEQUENCE: DLNRHLDEMCANNDFVQVDPGQVG [FAN1]
MEASUREMENT_TYPE: protein stability index
READOUT_NUMBER: 4.29

# input # protein stability index lookup, item SRLGQGIGPIHLNEIQCTGNEKSI [LOXL2]
# output 4.42

# input Request: MEDSQETSPSSNNSSEELSSALHL [NECAB1]
# output 5.57

# input Request: KESSPSGSKSQRYSGAYGASVSDE [CHCHD3]
# output 5.31

# input Request: NAAKTCPTMPALFSDHTFRHYAYL [INTS4]
# output 2.03

# input Request: LVKHWYQNCKKKLGKLPPQYALEL [OAS1]
# output 2.43

# input Request: EADPPASDLPTPQAIEPQAIVQQV [SNX8]
# output 5.34

# input Request: FRRGEKLRVISDEGGWWKAISLST [SLA]
# output 3.3

# input Request: KALEILRKDFSELRSAGVEQLMYI [FAM50A]
# output 2.55
